experiment: HILIC, Waters ACQUITY UPLC BEH Amide, 100 × 2.1 mm, 1.7 µm; A: water + 0.125% formic acid + 10 mM ammonium formate; B: 5% water + 95% acetonitrile + 0.125% formic acid + 10 mM ammonium formate; gradient (min/%B) 0/100 2/100 7.7/70 9.5/40 10.25/30 12.75/100 17/100; settings: stereoisomer not certain
Endpoint: LC retention time (min)

Example compounds with recorded LC retention time:
| Compound | Value Observed |
| --- | --- |
| COc1ccc(NC=O)c(C(=O)CCNC(C)=O)c1 | 1.32 |
| Oc1cc(O)c2c(c1)OC(c1cc(O)c(O)c(O)c1)C(O)C2 (stereo not given) [Epigallocatechin] | 10.2 |
| CC(C)NCC(O)COc1ccc(CCOCC2CC2)cc1 (stereo not given) | 3.05 |
| COc1ccc(C=O)cc1OC | 1.08 |
| CS(=O)(=O)c1ccc(C2=C(c3ccccc3)C(=O)OC2)cc1 | 0.97 |
| CC(COc1ccccc1Cc1ccccc1)N1CCCCC1 (stereo not given) | 1.99 |
| NCC(O)CCC(N)C(=O)O (stereo not given) [delta-Hydroxylysine] | 9.77 |
| NCCCCN | 9.3 |
| Nc1nc2c(ncn2C2CC(OP(=O)(O)O)C(CO)O2)c(=O)[nH]1 (stereo not given) [2'-Deoxyguanosine 3'-monophosphate] | 9.43 |
| NC1CCN(c2nc3c(cc2F)c(=O)c(C(=O)O)cn3-c2ccc(F)cc2F)C1 (stereo not given) | 4.87 |

1. CCCCCCCCCCCCCCCCCC(=O)OC(CC(=O)[O-])C[N+](C)(C)C (stereo not given)
2. CC(O)C(O)C1=Nc2c(nc(N)[nH]c2=O)NC1 (stereo not given) [7,8-Dihydrobiopterin]
3. C=CCC1C=C(C)CC(C)CC(OC)C2OC(O)(C(=O)C(=O)N3CCCCC3C(=O)OC(C(C)=CC3CCC(O)C(OC)C3)C(C)C(O)CC1=O)C(C)CC2OC (stereo not given)
4. CC(C)(CO)C(O)C(=O)NCCCO (stereo not given)
Give the ascending ranking of the items by reported LC retention time. A ranking is expressed here by listing the labels in the requested order.
3, 4, 1, 2
(3: 1.07 min, 4: 1.9 min, 1: 2.96 min, 2: 7.18 min)

====

assay: HILIC, Waters ACQUITY UPLC BEH Amide, 100 × 2.1 mm, 1.7 µm; A: water + 0.125% formic acid + 10 mM ammonium formate; B: 5% water + 95% acetonitrile + 0.125% formic acid + 10 mM ammonium formate; gradient (min/%B) 0/100 2/100 7.7/70 9.5/40 10.25/30 12.75/100 17/100; details: stereoisomer not certain
Endpoint: LC retention time (min)

Example compounds with recorded LC retention time:
| Compound | LC retention time, min |
| --- | --- |
| CC(C)C(NC(=O)CN)C(=O)O (stereo unspecified) | 8.05 |
| C[N+](C)(C)CCO [Choline [M]+] | 5.18 |
| NC(=O)CCC(NC(=O)C(N)CCC(=O)O)C(=O)O (stereo unspecified) | 9.6 |
| CC(NC(=O)C(Cc1ccc(O)cc1)NC(=O)CN)C(=O)O (stereo unspecified) | 7.89 |
| Nc1ncnc2c1ncn2C1OC2COP(=O)(O)OC2C1O (stereo unspecified) [Adenosine 3',5'-cyclic monophosphate] | 7.62 |
| CC(C)=CCNc1ncnc2nc[nH]c12 | 1.81 |

1. NC(CCO)C(=O)O (stereo unspecified)
2. O=C1CCNC(=O)N1 [5,6-Dihydrouracil]
3. COc1ccc(C(=O)NCc2ccc(OCCN(C)C)cc2)cc1OC [Itopride]
Give the ascending ranking of the items by reported LC retention time. A ranking is expressed here by listing the labels in the requested order.
2, 3, 1

P. CC(C)CC(=O)NCC(=O)O
Q. O=c1cc(-c2ccccc2)oc2ccc(O)cc12 [6-Hydroxyflavone]
Of P and Q , which carries the smaller reported LC retention time figure? Your choice should be expressed through its label.
Q
(Q: 1.26 min, P: 2.94 min)
